- Test system: NCI-H460 lung
- procedure-text: NCI-60 one-dose screen, 48 h
- test-settings: 10 µM unless noted
This is part of a sample that, as a whole, favours compounds with a hit. Of some 83,000 tested, about 20% had one in any assay. Calls of active or inactive are those of the source. The calls were made as follows: active = growth percent below 10; inactive = the rest.
Outcomes you can answer with include only these: active, inactive

// query Each compound tested received a call. Report the one for Cc1ccc2c(n1)C(=O)C(Cl)=C(Nc1cccc(C(F)(F)F)c1)C2=O .
// result inactive

// query Each compound tested received a call. Report the one for CCCC[n+]1ccc(SCC(=O)n2ccc3ccccc32)c2ccccc21 .
// result inactive

// query Each compound tested received a call. Report the one for CN1CCN(Cc2ccc(NC(=O)c3cncc(C#Cc4cnc5ccc(OCC6COC6)nn45)c3)cc2C(F)(F)F)CC1 .
// result active

// query Each compound tested received a call. Report the one for COc1ccc(OC)c(NC(=O)CCCCCCNC(=O)C(O)(O)C(F)(F)F)c1 .
// result inactive

// query Each compound tested received a call. Report the one for CCCNNC(=O)c1ccc(-c2ccc(NC(=O)CCCCCCC(=O)N[C@H](C(=O)N3C[C@H](O)C[C@H]3C(=O)N[C@@H](C)c3ccc(-c4scnc4C)cc3)C(C)(C)C)cc2)cc1 .
// result inactive

// query Each compound tested received a call. Report the one for COc1ccc(-c2cc(-c3ccc(N(C)C)cc3)n3c(n2)nc2ccccc23)cc1 .
// result inactive

// query Each compound tested received a call. Report the one for Cc1cc(NS(=O)(=O)c2ccc(NC(=O)CSc3nc4ccccc4c(=O)n3-c3ccccc3)cc2)no1 .
// result inactive

// query Each compound tested received a call. Report the one for CCN(CC)c1ccc(/C=N/NC(=O)c2ccc(S(N)(=O)=O)cc2)c(O)c1 .
// result active

// query Each compound tested received a call. Report the one for CC(C)(C)Nc1nc2c(OCCc3ccccc3)cccn2c1-c1ccc([N+](=O)[O-])cc1 .
// result inactive

// query Each compound tested received a call. Report the one for Cc1ncn(-c2ccc(/C=N/Nc3ccnc4cc(Cl)ccc34)cc2)c1C .
// result active

// query Each compound tested received a call. Report the one for C=C(C)[C@@H]1CC[C@]2(C(=O)NC3CCCCC3)CC[C@]3(C)[C@H](CC[C@@H]4[C@@]5(C)CC[C@H](N)C(C)(C)[C@@H]5CC[C@]43C)[C@@H]12 .
// result inactive

// query Each compound tested received a call. Report the one for O=C(Nc1cc(C(F)(F)F)cc(C(F)(F)F)c1)Nc1ccc2oc(=O)ccc2c1 .
// result active

// query Each compound tested received a call. Report the one for CC(C)(C)Nc1nc2c(OCCc3ccccc3)cccn2c1-c1cccc(Oc2ccccc2)c1 .
// result active

// query Each compound tested received a call. Report the one for Cc1ccc2c(n1)C(=O)C(Cl)=C(Nc1cccc(C(=O)OC(C)(C)C)c1)C2=O .
// result inactive

// query Each compound tested received a call. Report the one for C#C[C@]1(O)CC[C@H]2[C@@H]3CC=C4c5sc(NCc6ccccc6)nc5CC[C@]4(C)[C@H]3CC[C@@]21C .
// result inactive

// query Each compound tested received a call. Report the one for CCc1cc(OC(=O)N2CCC(N3CCCCC3)CC2)ccc1Nc1cc(-c2ccc(-n3cccn3)cc2)[nH]n1 .
// result active

// query Each compound tested received a call. Report the one for O=C1[C@@H]2Cc3c([nH]c4ccccc34)[C@H](c3ccc(Br)cc3)N2C(=O)CN1C1CCN(Cc2c(Cl)cccc2Cl)CC1 .
// result inactive
